# credit: patent US20240084003A1

- target: T1, human CD22-ECD-His protein (human, UniProt P20273 20-687)
- T1 construct: Made in house in HEK293E; also called hCD22-ECD-His; recombinant human CD22-ECD His protein; not shown: His tag
- T1 sequence: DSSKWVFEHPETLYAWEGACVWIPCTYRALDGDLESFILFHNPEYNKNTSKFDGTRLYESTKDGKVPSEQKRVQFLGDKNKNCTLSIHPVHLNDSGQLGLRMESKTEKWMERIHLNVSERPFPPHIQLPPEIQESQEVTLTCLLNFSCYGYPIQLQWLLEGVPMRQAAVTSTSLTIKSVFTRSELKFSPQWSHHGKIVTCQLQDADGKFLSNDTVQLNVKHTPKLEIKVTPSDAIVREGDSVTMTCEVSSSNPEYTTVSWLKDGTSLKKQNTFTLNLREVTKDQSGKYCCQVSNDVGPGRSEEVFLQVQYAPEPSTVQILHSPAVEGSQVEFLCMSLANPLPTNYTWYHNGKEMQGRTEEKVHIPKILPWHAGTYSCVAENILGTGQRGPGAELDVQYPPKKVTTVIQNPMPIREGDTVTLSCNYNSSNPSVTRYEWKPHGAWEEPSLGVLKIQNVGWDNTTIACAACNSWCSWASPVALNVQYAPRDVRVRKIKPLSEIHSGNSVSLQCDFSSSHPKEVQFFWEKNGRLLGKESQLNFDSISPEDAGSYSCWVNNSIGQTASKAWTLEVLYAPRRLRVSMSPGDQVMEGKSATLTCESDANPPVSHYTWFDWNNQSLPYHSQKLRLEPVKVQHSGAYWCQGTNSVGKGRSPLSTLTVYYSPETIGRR
- assay-info: ELISA, Ab 0.001 nM
- Protocol: In order to detect the binding activity of CD22 human-murine chimeric antibodies to CD22 protein, the purified human CD22-ECD-His protein obtained in Example 2 was diluted with PBS to a final concentration of 2 μg/mL, and then added to 96-well ELISA plate at 100 μl/well. The plate was sealed with plastic film and incubated overnight at 4° C., the plate was washed 2 times with PBS the next day, and then a blocking solution [PBS+2% (w/w) BSA] was added for blocking at room temperature for 2 hours. […]
endpoint-name: OD450 (OD450)
The reply should contain only the number, in OD450.

F1.105.11 (antibody, human IgG1, kappa, V domains shown, Human-murine chimeric IgG1, kappa) VH: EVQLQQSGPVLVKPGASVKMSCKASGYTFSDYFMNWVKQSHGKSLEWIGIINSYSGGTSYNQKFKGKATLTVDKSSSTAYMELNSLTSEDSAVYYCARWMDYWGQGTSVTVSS VL: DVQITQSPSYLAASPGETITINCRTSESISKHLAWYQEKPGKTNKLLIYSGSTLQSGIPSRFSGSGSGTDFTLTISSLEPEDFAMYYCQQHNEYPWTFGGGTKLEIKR	0.53

Item F1.216.2 (antibody, human IgG1, kappa, V domains shown, Human-murine chimeric IgG1, kappa) VH: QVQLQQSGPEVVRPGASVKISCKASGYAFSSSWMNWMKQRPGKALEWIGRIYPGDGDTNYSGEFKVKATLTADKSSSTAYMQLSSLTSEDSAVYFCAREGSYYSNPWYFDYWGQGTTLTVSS VL: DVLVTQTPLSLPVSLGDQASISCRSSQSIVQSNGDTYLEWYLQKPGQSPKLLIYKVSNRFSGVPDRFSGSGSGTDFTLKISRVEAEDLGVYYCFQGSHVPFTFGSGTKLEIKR has what recorded OD450?
1.71
